Just for reference, patent US4463003A is where these values come from.

Protocol Text: Urinary excretion after oral administration in rats
Assay type: in vivo
Condition Summary: rat, urine, 100 mg/kg, 0 to 24 hours, bioassay, read-out: Urinary recovery in 24 hours (%)
Measured Property: dose excreted at 24 h (%)
Hi! Could you send only the number? It should be in %, unit omitted.

dose excreted at 24 h for O=C(O)CO/N=C(\C(=O)NC1C(=O)N2C(C(=O)O)=C(CSc3ccc4nnnn4n3)CSC12)c1ncsn1 (stereo not shown) ?
10.6
